target: human H4 receptor (Homo sapiens); construct: expressed in transfected cells; test: [3H]Histamine binding on membranes of CHO cells stably expressing human H4 receptor
Sequence (Q9H3N8 whole entry): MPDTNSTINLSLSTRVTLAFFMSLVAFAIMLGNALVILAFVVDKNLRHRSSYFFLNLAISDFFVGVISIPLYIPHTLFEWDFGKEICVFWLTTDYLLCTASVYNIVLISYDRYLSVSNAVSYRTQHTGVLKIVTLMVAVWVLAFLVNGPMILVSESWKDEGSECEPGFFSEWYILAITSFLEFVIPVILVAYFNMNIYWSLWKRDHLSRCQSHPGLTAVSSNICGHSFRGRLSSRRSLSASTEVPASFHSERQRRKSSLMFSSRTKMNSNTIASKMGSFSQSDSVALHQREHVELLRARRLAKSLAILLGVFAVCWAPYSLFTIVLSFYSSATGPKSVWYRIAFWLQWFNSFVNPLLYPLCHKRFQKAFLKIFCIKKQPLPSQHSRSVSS

{"MOLECULE": "CC1=C(O)C(=NCCCCC#Cc2ccc(F)c(C(OC3CCN(C)CC3)c3nc4ccccc4[nH]3)c2)CC1 (centres unmarked)", "Ki or IC50 activity class": "< 300 nM"}
{"MOLECULE": "CN1CCC(OC(c2nc3ccccc3[nH]2)c2cccc(I)c2F)CC1 (centres unmarked)", "Ki or IC50 activity class": "< 300 nM"}
{"MOLECULE": "CN1CCC(OC(c2cccc(C#CCCNC(=N)NC(=O)OC(C)(C)C)c2)c2nc3ccccc3[nH]2)CC1 (centres unmarked)", "Ki or IC50 activity class": "< 1000 nM"}
{"MOLECULE": "CN1CCC(OC(c2cccc(C#CCCCn3cccn3)c2)c2nc3ccccc3[nH]2)CC1 (centres unmarked)", "Ki or IC50 activity class": "< 300 nM"}
{"MOLECULE": "Cc1ccc(C(OC2CCN(C)CC2)c2nc3ccccc3s2)s1 (centres unmarked)", "Ki or IC50 activity class": "< 300 nM"}
{"MOLECULE": "Cc1cc(C(OC2CCN(C)CC2)c2nc3ccccc3[nH]2)c(O)c(F)c1C (centres unmarked)", "Ki or IC50 activity class": "< 300 nM"}
{"MOLECULE": "CN1CCC(OC(c2cccc(Br)c2)c2nc3cc(F)c(F)cc3[nH]2)CC1 (centres unmarked)", "Ki or IC50 activity class": "< 1000 nM"}
{"MOLECULE": "CN1CCC(OC(c2cccc(SCC3=NCCN3)c2)c2nc3ccccc3[nH]2)CC1 (centres unmarked)", "Ki or IC50 activity class": "< 300 nM"}
